Taken from PubChem BioAssay AID1159580.

assay: chemical genetic growth profiling, strain panel (AID 1159580);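 further: tested at 20 µM; growth read once vehicle control cultures reached saturation at 30 °C; 1 = growth at the plate median or of vehicle wells; lower values mean less growth of the strain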; conditions: S. cerevisiae deletion strains, growth OD, locus YPL241C, strain CIN2, active compounds read low
About 2,000 (36%) of roughly 5,500 compounds were called active. Another 18% or so got no clear call; they are omitted. Some of the results follow.
Below is a list of entries, each paired with its recorded normalized growth value.
Answer with the value's number alone.

- O=C(OC1Cc2c(O)cc(O)cc2OC1c1cc(=O)c(O)c2c(O)c(O)cc(C3Oc4cc(O)cc(O)c4CC3O)c2c1)c1cc(O)c(O)c(O)c1 (centres undefined): 0.636
- CCCCCCC(C)OC(=O)COc1ccc(Cl)cc1Cl (centres undefined): 0.995
- CC[C@H](NC(=O)c1c(C)c(-c2ccccc2)nc2ccccc12)c1ccccc1: 0.987

Recorded normalized growth of O=C(NC(Cc1ccccc1)C(=O)CCl)OCc1ccccc1 (centres undefined) , please.
0.992

Sample Cc1cc(OC(=O)c2c(C)cc(OC(=O)c3c(C)cc(O)cc3O)cc2O)cc(O)c1C(=O)O — what was its normalized growth?
1.02

Can you share its normalized growth? I mean this compound: C[C@]12CCC3c4ccc(O)cc4CCC3C1C[C@@H](O)[C@@H]2O (some centres undefined)
0.989

Which normalized growth value belongs to COc1cc(OC)c2ccc(=O)oc2c1 ?
1

Bench note: what normalized growth did O=S(=O)(c1cccc2c(I)cccc12)N1CCCNCC1 show?
0.984

Form field: reported normalized growth of CC(C)(O)[C@@H]1Cc2cc3ccc(=O)oc3cc2O1
1.01

---

// normalized growth lookup, one value per entry
assay: chemical genetic growth profiling, strain panel (AID 1159580);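 further: tested at 20 µM; growth read once vehicle control cultures reached saturation at 30 °C; 1 = growth at the plate median or of vehicle wells; lower values mean less growth of the strain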; settings: S. cerevisiae deletion strains, growth OD, locus YAL013W, strain DEP1, active compounds read low
About 2,000 (36%) of roughly 5,500 compounds were called active. Roughly 18% stayed inconclusive and do not appear here. The list shows a part of the results.
Answer using only a numeral; do not append any unit.

The examples below pair each entry with its known result.
• CCN1C[C@]2(C)CC[C@H](OC)[C@]34C2[C@H](O)[C@]2(OCO[C@@]25C[C@H](OC)[C@H]2C[C@]3(O)C5[C@H]2O)C14 = 0.998
• C[C@]12CCC3c4ccc(O)cc4CCC3C1C[C@@H](O)[C@@H]2O (some centres not stated) = 0.994
• Cc1[nH]ccc2c1[nH]c1cc(=O)ccc12 = 1.02
• Cc1cccc(/C=C/c2ccccc2)n1 = 1
• CC1=NN=C(c2ccc(N)cc2)c2cc3c(cc2C1)OCO3 = 0.989
• CC(C)c1c(O)c(-c2cc3c(c(C(C)C)c2O)CCC2C(C)(C)CCC[C@]32C)cc2c1CCC1C(C)(C)CCC[C@]21C (some centres not stated) = 1.01

API: the following record is the query input.
Look up normalized growth: CC(C)(C)NCC(O)c1cc(O)cc(O)c1 (configuration not stated)
1

---

normalized growth: recorded values
assay: chemical genetic growth profiling, strain panel (AID 1159580);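 further: tested at 20 µM; growth read once vehicle control cultures reached saturation at 30 °C; 1 = growth at the plate median or of vehicle wells; lower values mean less growth of the strain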; details: S. cerevisiae deletion strains, growth OD, locus YKR001C, strain vps1, active compounds read low
Screen size: about 5,500 compounds; about 2,000 (36%) were called active. Inconclusive results (about 18%) are left out. The list shows a part of the results.
Answer using only a numeral; do not append any unit.

* CC(=O)OC1CN2CCC1CC2 (stereo not given) | 0.981
* CC(C)(C)NCC(O)c1cc(Cl)c(N)c(Cl)c1 (stereo not given) | 1.01
* CC(C1OC(C)(C)C(O)C1O)[C@@H]1CC[C@]2(C)C3=CCC4C(C)(C)C(=O)CC[C@]4(C)C3CC[C@@]12C (stereo not given in full) | 1.01
* CCOC(=O)NC1=C(C2CC2)C(=O)C(NC(=O)OCC)=C(C2CC2)C1=O | 0.989

Then there is this compound:
Reported normalized growth for NC(=O)NCC(N)C(=O)O (stereo not given) : what is it?
0.989
